Values compiled from paper PMC5309245.

biological target: S. pneumoniae DSM20566 NA (Streptococcus pneumoniae, UniProt P62575); construct: host or cells: either rNanA from E. coli BL21(DE3) or total precipitated protein of S. pneumoniae DSM20566; assay: HA-based NA inhibition assay, S. pneumoniae DSM20566; format: cell-based; details: human erythrocytes
Sequence (P62575 54-1035): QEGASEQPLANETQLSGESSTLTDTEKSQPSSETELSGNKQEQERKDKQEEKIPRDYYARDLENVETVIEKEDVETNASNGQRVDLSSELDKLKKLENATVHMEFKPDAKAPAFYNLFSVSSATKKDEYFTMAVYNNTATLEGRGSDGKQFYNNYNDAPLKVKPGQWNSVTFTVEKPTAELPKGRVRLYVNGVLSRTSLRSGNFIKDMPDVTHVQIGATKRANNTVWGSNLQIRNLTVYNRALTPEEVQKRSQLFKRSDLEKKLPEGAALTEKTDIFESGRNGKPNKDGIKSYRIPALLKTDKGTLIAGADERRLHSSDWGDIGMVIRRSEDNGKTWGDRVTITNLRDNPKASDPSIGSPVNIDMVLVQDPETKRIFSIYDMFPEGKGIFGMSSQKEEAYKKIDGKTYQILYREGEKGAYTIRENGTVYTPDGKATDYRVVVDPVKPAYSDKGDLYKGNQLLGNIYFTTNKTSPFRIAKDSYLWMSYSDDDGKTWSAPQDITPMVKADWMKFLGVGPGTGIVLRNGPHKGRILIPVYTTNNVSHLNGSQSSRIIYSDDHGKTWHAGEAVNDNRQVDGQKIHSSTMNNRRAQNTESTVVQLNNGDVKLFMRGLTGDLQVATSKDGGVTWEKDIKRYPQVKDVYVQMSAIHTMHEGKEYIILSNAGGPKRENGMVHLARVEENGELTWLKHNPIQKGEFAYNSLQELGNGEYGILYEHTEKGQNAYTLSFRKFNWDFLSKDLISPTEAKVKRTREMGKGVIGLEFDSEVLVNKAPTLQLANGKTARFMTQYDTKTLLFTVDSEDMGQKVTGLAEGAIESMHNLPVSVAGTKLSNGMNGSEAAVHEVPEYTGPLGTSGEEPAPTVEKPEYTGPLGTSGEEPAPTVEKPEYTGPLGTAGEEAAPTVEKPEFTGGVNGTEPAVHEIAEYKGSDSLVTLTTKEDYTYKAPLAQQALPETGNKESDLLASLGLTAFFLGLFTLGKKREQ
measured-attribute: NA inhibition using HA assay MIC, S. p. DSM20566 (µM)

compound: Cc1ccccc1/N=N/c1ccc(/N=N/c2c(O)ccc3cc(S(=O)(=O)O)cc(S(=O)(=O)O)c23)c(C)c1 [Compound 5]
unit-descriptor: µM
value-reported: 2.44
//
compound: Cc1cc(N=Nc2ccc(N=Nc3c(O)c(S(=O)(=O)O)cc4cc(S(=O)(=O)O)ccc34)cc2C)ccc1N=Nc1ccc2cc(S(=O)(=O)O)cc(S(=O)(=O)O)c2c1 [Compound 1]
unit-descriptor: µM
value-reported: 7.26
